Tested on: L1210 leukemia ip in BDF1 mice, survival T/C
Test: NCI In Vivo Anticancer Drug Screen. Data for tumor model L1210 Leukemia (intraperitoneal) in B6D2F1 (BDF1) mice
Conditions: endpoint: mean survival time; dose: 100.0 mg/kg/injection; schedule: Q01DX009 (ip); vehicle: Klucel (hydroxypropylcellulose) (HPC); higher = longer survival
Inconclusive results and toxic doses are left out.

- compound: "COc1cc2c(c3oc(=O)ccc13)C(=O)CC(C)(C)O2"
  T/C: "95 % of control"
- compound: "O=C(NC(=O)C(Cl)Cl)OC1c2ccccc2-c2ccccc21"
  T/C: "90 % of control"
- compound: "CCC(=O)/C=C/c1ccc(Cl)cc1"
  T/C: "98 % of control"
- compound: "O=C(/C=C/c1ccccc1O)c1ccccc1"
  T/C: "98 % of control"
- compound: "Nc1ccc([N+](=O)[O-])cc1N=C/C=C/c1ccccc1"
  T/C: "96 % of control"
- compound: "CC(C)(C)CC(C)(C)c1ccc(OCCOC(=O)c2ccccc2C(=O)O)cc1"
  T/C: "94 % of control"
- compound: "C/C(=N/N(C)C)c1ccccc1O"
  T/C: "103 % of control"
- compound: "CCN(CC)C(C)CN1c2ccccc2Sc2ccccc21 (configuration not stated)"
  T/C: "103 % of control"
- compound: "COc1ccccc1NC(=O)Oc1c(C(C)C)cccc1C(C)C"
  T/C: "94 % of control"
- compound: "O=C1c2ccccc2-c2nc3cc4ccccc4cc3nc21"
  T/C: "98 % of control"
- compound: "CN(C)S(=O)(=O)Nc1cc(Cl)c(NS(=O)(=O)N(C)C)cc1Cl"
  T/C: "94 % of control"
- compound: "CCN(CC)CCCNc1nc(C(Cl)(Cl)Cl)nc2ccc(I)cc12"
  T/C: "96 % of control"

* * *

Tested on: L1210 leukemia ip in BDF1 mice, survival T/C
Assay: NCI In Vivo Anticancer Drug Screen. Data for tumor model L1210 Leukemia (intraperitoneal) in B6D2F1 (BDF1) mice
Settings: endpoint: mean survival time; dose: 100.0 mg/kg/injection; schedule: Q04DX003 (ip); vehicle: other; higher = longer survival
Inconclusive results and toxic doses are left out.
We begin with a simple list: items and their reported T/C.

- molecule: "CC(=NCc1ccccc1)C(C)(O)c1ccccc1 (stereo unspecified)"
  T/C: "97 % of control"
- molecule: "CCC1(C)CC1(Cl)Cl (stereo unspecified)"
  T/C: "105 % of control"
- molecule: "Cc1ccn(-c2ccccc2)n1"
  T/C: "101 % of control"
- molecule: "CCCC(=O)NC1CCC(CC2CCCCC2)CC1 (stereo unspecified)"
  T/C: "100 % of control"
- molecule: "CC(=O)[O][Sn]([CH2]c1ccccc1)([CH2]c1ccccc1)[O]C(C)=O"
  T/C: "92 % of control"
- molecule: "N#CCCn1ccc2ccccc21"
  T/C: "96 % of control"

* * *

Test system: L1210 leukemia ip in BDF1 mice, survival T/C
Assay: NCI In Vivo Anticancer Drug Screen. Data for tumor model L1210 Leukemia (intraperitoneal) in B6D2F1 (BDF1) mice
Details: endpoint: mean survival time; dose: 100.0 mg/kg/injection; schedule: Q04DX003 (ip); vehicle: saline with Tween-80; higher = longer survival
Inconclusive results and toxic doses are left out.

- molecule: "COc1c(N(C)C)cc2c(c1C)OC(C)(C)C=C2"
  T/C: "96 % of control"
- molecule: "CCCC1(C)NC(=O)NC1=O (stereo not drawn)"
  T/C: "110 % of control"
- molecule: "Clc1ccc(OCc2sc3ccc(Cl)cc3c2CN2CCOCC2)cc1"
  T/C: "91 % of control"
- molecule: "O=C(/C(=C\\c1ccccc1)CN1CCOCC1)c1ccc(Br)cc1"
  T/C: "87 % of control"
- molecule: "Cc1[o+]c(C)c2c(c1C)-c1ccccc1C2=O"
  T/C: "98 % of control"
- molecule: "Nc1nc(N)nc(N)n1 (tested in a mixture with another compound)"
  T/C: "89 % of control"
- molecule: "CCCC/C=C(\\C)CCCCCCCCC (tested in a mixture with another compound)"
  T/C: "90 % of control"
- molecule: "O=P(CCCl)(OCCCl)OCCCl"
  T/C: "94 % of control"
- molecule: "CSC(=S)N/N=C(\\C)c1ccccn1"
  T/C: "107 % of control"
- molecule: "CCOC(=O)/C(C#N)=C/c1cc2c3c(c1)CCCN3CCC2"
  T/C: "93 % of control"
- molecule: "CCOc1ccc(Br)cc1"
  T/C: "105 % of control"
- molecule: "NC(=O)NC(=O)/C=C/C(=O)O"
  T/C: "92 % of control"
- molecule: "COc1ccc([I+]c2ccccc2)cc1"
  T/C: "97 % of control"

* * *

Test system: L1210 leukemia ip in BDF1 mice, survival T/C
Experiment: NCI In Vivo Anticancer Drug Screen. Data for tumor model L1210 Leukemia (intraperitoneal) in B6D2F1 (BDF1) mice
Details: endpoint: mean survival time; dose: 12.5 mg/kg/injection; schedule: Q01DX009 (ip); vehicle: saline with Tween-80; higher = longer survival
Inconclusive results and toxic doses are left out.
measure: T/C

- smiles.string: "CCCCCCCCCCCCOCC[N+](C/C=C/c1ccccc1)(CCO)CCO"
  measured.value: "95 % of control"
- smiles.string: "O=[N+]([O-])c1ccc(Cl)c(I)c1"
  measured.value: "94 % of control"
- smiles.string: "CC(C)CCNc1ccc(NCCC(C)C)cc1"
  measured.value: "100 % of control"
- smiles.string: "C=C(Br)CSC#N"
  measured.value: "93 % of control"
- smiles.string: "O=[N+]([O-])/C=C/c1ccc2ccccc2n1"
  measured.value: "97 % of control"

* * *

# T/C per record follows
System: L1210 leukemia ip in BDF1 mice, survival T/C
Test: NCI In Vivo Anticancer Drug Screen. Data for tumor model L1210 Leukemia (intraperitoneal) in B6D2F1 (BDF1) mice
Conditions: endpoint: mean survival time; dose: 100.0 mg/kg/injection; schedule: Q04DX002 (ip); vehicle: Klucel (hydroxypropylcellulose) (HPC); higher = longer survival
Inconclusive results and toxic doses are left out.

- molecule: "CNc1ccccc1C(=O)N/N=C/c1ccccc1Cl"
  T/C: "108 % of control"
- molecule: "O=C(Nc1cccc(Cl)c1)Oc1ccc(C2CCCCC2)cc1"
  T/C: "104 % of control"
- molecule: "O=C(NC(=S)N1CCCC1)c1ccccc1"
  T/C: "96 % of control"
- molecule: "CC(C)(S)C(N)C(N)=O (configuration not stated)"
  T/C: "103 % of control"
- molecule: "C=C1c2ccccc2N(C)C1(COc1ccc(Cl)c(C)c1)OC(=O)c1cccc(Cl)c1 (configuration not stated)"
  T/C: "95 % of control"
- molecule: "CC(C)=CCC(N)C(C)c1ccccc1 (configuration not stated)"
  T/C: "102 % of control"
- molecule: "CCCCN1C(c2ccccc2)=CN(Cc2ccccc2)C=C1c1ccccc1"
  T/C: "106 % of control"
- molecule: "COc1ccc(/C=C(\\C#N)c2ccc([N+](=O)[O-])cc2)cc1[N+](=O)[O-]"
  T/C: "105 % of control"
- molecule: "CC(C)CCCC(C)C1CCC2C3CCC4CC(=O)CCC4(C)C3CCC12C (configuration not stated)"
  T/C: "87 % of control"
- molecule: "COc1ccc(-c2nnc(-c3ccc(OC)cc3)nn2)cc1"
  T/C: "103 % of control"
- molecule: "Cc1c([N+](=O)[O-])cc(C(C)(C)C)c(OC(=O)C(C)(C)C)c1[N+](=O)[O-]"
  T/C: "92 % of control"
- molecule: "CC(C)c1nc(C=O)c(C=O)n1Cc1ccccc1"
  T/C: "105 % of control"

* * *

System: L1210 leukemia ip in BDF1 mice, survival T/C
Experiment: NCI In Vivo Anticancer Drug Screen. Data for tumor model L1210 Leukemia (intraperitoneal) in B6D2F1 (BDF1) mice
Conditions: endpoint: mean survival time; dose: 400.0 mg/kg/injection; schedule: Q04DX003 (ip); vehicle: Klucel (hydroxypropylcellulose) (HPC); higher = longer survival
Toxic doses and inconclusive results are not listed.
# T/C listing for each entry below

- compound: "FC1=C(F)C2(F)C3CCC(O3)C2(F)C(Br)=C1F (stereo not given)"
  T/C: "98 % of control"
- compound: "C=CCNC(=S)Nc1cccc(Cl)c1C"
  T/C: "94 % of control"
- compound: "O=C(NCCBr)Nc1ccccc1C(F)(F)F"
  T/C: "93 % of control"
- compound: "CCCCc1c(N)nc(=S)[nH]c1C(=O)O"
  T/C: "96 % of control"
- compound: "O=[N+]([O-])c1cc(Br)cc2c1nc(Cl)c1ccccc12"
  T/C: "98 % of control"
- compound: "NC(=O)NC(Cc1ccccc1)(C(=O)O)c1ccccc1 (stereo not given)"
  T/C: "103 % of control"
- compound: "COc1ccc(C(=O)NC(=S)Nc2cccc(Cl)c2)cc1"
  T/C: "93 % of control"
- compound: "C(/C=N/N(c1ccccc1)c1ccccc1)=N\\N(c1ccccc1)c1ccccc1"
  T/C: "93 % of control"
- compound: "COc1ccccc1NC(=O)Nc1ccccc1F"
  T/C: "97 % of control"
- compound: "CC(=O)Nc1cc([N+](=O)[O-])ccc1CC(O)c1ccccc1Cl (stereo not given)"
  T/C: "103 % of control"
- compound: "N#CC1(Cc2ccccc2)c2ccccc2-c2ccccc21"
  T/C: "91 % of control"
- compound: "O=C(COc1ccc(Cl)cc1)Nc1cc(C(F)(F)F)ccc1Cl"
  T/C: "95 % of control"
- compound: "O=C(N/N=C/c1ccccc1)c1ccc(Cl)cc1"
  T/C: "90 % of control"
- compound: "CCO/C=C1\\SC(=S)N(c2ccc(OCC)cc2)C1=O"
  T/C: "97 % of control"
- compound: "CNC(=O)NCC1OC(OC)C(O)C(O)C1O (stereo not given)"
  T/C: "100 % of control"
- compound: "CCCCCCCCCCCCCCCCN(C)/C(=N\\NS(=O)(=O)c1cccc([N+](=O)[O-])c1)c1ccc(OC)c(OC)c1"
  T/C: "93 % of control"
- compound: "Cc1ccc(C)c(NC(=O)NCc2ccccc2Cl)c1"
  T/C: "89 % of control"
- compound: "COC(=O)c1nc2c(N)nc(-c3ccccc3)nc2nc1N"
  T/C: "106 % of control"
- compound: "C(=C\\c1ccccn1)/c1ccccc1"
  T/C: "103 % of control"
- compound: "CC(=O)Nc1cc2c(cc1Cl)-c1ccc(F)cc1C2=O"
  T/C: "105 % of control"
- compound: "O=c1cc(Br)c(=O)c2cc(Br)cc(Br)c2[nH]1"
  T/C: "88 % of control"
- compound: "Cc1cccc(SC(=O)Nc2cc([N+](=O)[O-])ccc2C)c1"
  T/C: "97 % of control"
- compound: "Cc1ccc(C)c(NC(=O)Oc2ccc(Br)cc2Br)c1"
  T/C: "110 % of control"
- compound: "COC(=O)c1cc(=O)[nH]c2c1c(=O)n(C)c(=O)n2C"
  T/C: "94 % of control"
- compound: "Nc1ccc(C(=O)O)c(C(=O)O)c1"
  T/C: "102 % of control"
